Values were extracted from PubChem BioAssay AID1508600.

experiment: Components of the Cytosolic LPS Sensing Pathway: Gene Identification via Genome-wide siRNA Screen; settings: RAW264.7 macrophages, IL-1a HTRF, actives lie on both sides, screened at 100 nM (by protocol), cells primed 5 h with Pam3CSK4 first
The whole screen tested about 53,000 sequences, of which about 3,700 (7%) were called active.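 How the source made its calls: active means gene knockdowns whose robust z-score for IL-1 alpha signal is at least 2 or at most -2, so actives lie on both sides; inactive means the rest.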 The full list was thinned out, with actives kept by preference.
Write down one outcome, taken from true = active, false = inactive

Study these solved cases before continuing.
How did this test come out for GGAACCAAUCUUGGUCUCATT against Tln2 ?
false

How did this test come out for GGUCAAGACGGUCUACCGATT against Rab3d ?
false

How did this test come out for GUUGUCCUCUUUGUCAUCATT against Olfr502 ?
true

***
How did this test come out for GGUUCCAUGUUCAGAAUUUTT against Alg9 ?
true

How did this test come out for GGAAGGAAGCUAAAAAACGTT against Gnl3 ?
true

How did this test come out for CGCAGAACCCUGGUUUCUATT against Trappc11 ?
false

How did this test come out for CCAAUGCAAGUGCUACAGUTT against Zfp277 ?
true

How did this test come out for CCCUAUUGAUUCAACUUGGTT against Samt4 ?
false

How did this test come out for GGCAAGAAAAAUCAGAUUGTT against Cyld ?
true

How did this test come out for GCUUUCAUAGCUGGAAACCTT against Olfr173 ?
false

How did this test come out for GGCUGCUAAUUGGAUUUUUTT against Ccnj ?
false

How did this test come out for CCGACUCCAGUUGAAUGUUTT against Tgif2 ?
false
